- Test system: NCI-H2170
- testDescription: relative viability (nuclei count vs DMSO), 5 days (fraction); higher = more cells survive
- settings: first compound 0.08 µM
Friendly reminder: relative viability below 0.8 is yes (1), at or above is no (0).

1. COc1nc(C)cnc1NS(=O)(=O)c1cccnc1-c1ccc(-c2nnco2)cc1 [Zibotentan] + NC(=O)Nc1cc(-c2cccc(F)c2)sc1C(=O)N[C@H]1CCCNC1 [AZD7762] (partner 0.2 µM) | no (0)
2. COc1nc(C)cnc1NS(=O)(=O)c1cccnc1-c1ccc(-c2nnco2)cc1 [Zibotentan] + CCNC(=O)c1noc(-c2cc(C(C)C)c(O)cc2O)c1-c1ccc(CN2CCOCC2)cc1 [Luminespib] (partner 0.01 µM) | yes (1)
3. O=c1cc(-c2cccc3c2Sc2ccccc2S3)oc(N2CCOCC2)c1 + O=C(CCCCCCC(=O)Nc1ccccc1)NO [Vorinostat] (partner 1 µM) | no (0)

----------
- Tested on: NCI-H2170
- testDescription: relative viability (nuclei count vs DMSO), 5 days (fraction); higher = more cells survive
- settings: first compound 2.53 µM
# key: entry, value: relative viability
parameterMeasured: relative viability

1. O=c1cc(-c2cccc3c2Sc2ccccc2S3)oc(N2CCOCC2)c1 + CS(=O)(=O)N1CCN(Cc2cc3nc(-c4cccc5[nH]ncc45)nc(N4CCOCC4)c3s2)CC1 [Pictilisib] (partner 1 µM) | 0.287
2. COc1nc(C)cnc1NS(=O)(=O)c1cccnc1-c1ccc(-c2nnco2)cc1 [Zibotentan] + N=C(N)NC(=N)NCCc1ccccc1 [Phenformin] (partner 250 µM) | 0.39
3. COc1nc(C)cnc1NS(=O)(=O)c1cccnc1-c1ccc(-c2nnco2)cc1 [Zibotentan] + Nc1nc2[nH]cc(CCc3ccc(C(=O)N[C@@H](CCC(=O)O)C(=O)O)cc3)c2c(=O)[nH]1 [Pemetrexed] (partner 0.2 µM) | 0.248
4. O=c1cc(-c2cccc3c2Sc2ccccc2S3)oc(N2CCOCC2)c1 + NC(=O)Nc1cc(-c2cccc(F)c2)sc1C(=O)N[C@H]1CCCNC1 [AZD7762] (partner 0.2 µM) | 0.792

----------
- Tested on: NCI-H2085
- testDescription: relative viability (nuclei count vs DMSO), 5 days (fraction); higher = more cells survive
- settings: first compound 6.325 µM
Friendly reminder: relative viability below 0.8 is yes (1), at or above is no (0).

1. COCC1(CO)C(=O)C2CCN1CC2 (stereo not given) [PRIMA-1MET] + Nc1nc2[nH]cc(CCc3ccc(C(=O)N[C@@H](CCC(=O)O)C(=O)O)cc3)c2c(=O)[nH]1 [Pemetrexed] (partner 0.2 µM) | no (0)
2. COCC1(CO)C(=O)C2CCN1CC2 (stereo not given) [PRIMA-1MET] + CC(=O)Nc1cccc(-n2c(=O)n(C3CC3)c(=O)c3c(Nc4ccc(I)cc4F)n(C)c(=O)c(C)c32)c1 [Trametinib] (partner 0.02 µM) | yes (1)
3. COCC1(CO)C(=O)C2CCN1CC2 (stereo not given) [PRIMA-1MET] + Nc1ncn([C@H]2C[C@H](O)[C@@H](CO)O2)c(=O)n1 [Decitabine] (partner 2 µM) | yes (1)
4. COCC1(CO)C(=O)C2CCN1CC2 (stereo not given) [PRIMA-1MET] + NC(=O)Nc1cc(-c2cccc(F)c2)sc1C(=O)N[C@H]1CCCNC1 [AZD7762] (partner 0.2 µM) | no (0)
5. COCC1(CO)C(=O)C2CCN1CC2 (stereo not given) [PRIMA-1MET] + Cc1cc(Nc2cc(N3CCN(C)CC3)nc(Sc3ccc(NC(=O)C4CC4)cc3)n2)n[nH]1 [Tozasertib] (partner 0.1 µM) | no (0)
